- System: Staphylococcus aureus
- assayNotes: Antibacterial activity against methicillin-resistant Staphylococcus aureus USA400 NRS123 clinical isolate after 20 hrs by broth microdilution method
- Assay type: functional
- experimentalSetup: USA400 NRS123, 20 h
Below is a list of entries, each paired with its recorded log10 MIC value.
A value of 2 here means MIC of 100 in µg/mL, since values are log10.

Before answering, review these 4 worked examples.
# entrySmiles, log10 MIC
data = [
    ("C/C(=N\\NC(=N)N)c1ccc(NC(=O)c2cc(C)oc2C)cc1", 1.38),
    ("CCCCc1ccc(NC(=O)Nc2ccc(/C(C)=N/NC(=N)N)cc2)cc1", 0.90),
    ("CCCOc1ccc(NC(=O)Nc2ccc(/C(C)=N/NC(=N)N)cc2)cc1", 0.60),
    ("C/C(=N\\NC(=N)N)c1ccc(NC(=O)Nc2ccc(OC3CCCCCC3)cc2)cc1", 0.60),
]

Req: So what does the record say about log10 MIC for `C/C(=N\NC(=N)N)c1ccc(NC(=O)Nc2ccc(OCCC(C)C)cc2)cc1` ?
Resp: 0.30

Req: Which log10 MIC is reported for this molecule? `CCCCCCCCOc1ccc(NC(=O)Nc2ccc(/C(C)=N/NC(=N)N)cc2)cc1`
Resp: 1.51

Req: Which log10 MIC is reported for this molecule? `C/C(=N\NC(=N)N)c1ccc(NC(=O)c2cc(F)c(F)c(F)c2)cc1`
Resp: 1.20

Req: Need log10 MIC of `CCCCCCOc1ccc(NC(=O)Nc2ccc(/C(C)=N/NC(=N)N)cc2)cc1` , thanks.
Resp: 0.90

Req: Quick one: log10 MIC of `C/C(=N\NC(=N)N)c1ccc(NC(=O)Nc2nc3ccccc3s2)cc1` ?
Resp: 1.00

Req: Would you mind telling me what log10 MIC value was observed for `C/C(=N\NC(=N)N)c1ccc(NC(=O)c2cccc(Oc3ccccc3)c2)cc1` ?
Resp: 1.20

Req: Which log10 MIC value is on record for `CCCCCOc1ccc(NC(=O)Nc2ccc(/C(C)=N/NC(=N)N)cc2)cc1` ?
Resp: 0.60

Req: GET /values?readout=log10 MIC&item= `C/C(=N\NC(=N)N)c1ccc(NC(=O)Cc2cc(F)cc(F)c2)cc1`
Resp: 1.20

Req: Requested read-out: log10 MIC. Entry: `CCCCCCCOc1ccc(NC(=O)Nc2ccc(/C(C)=N/NC(=N)N)cc2)cc1`
Resp: 1.20

Req: Need log10 MIC of `C/C(=N\NC(=N)N)c1ccc(NC(=O)Nc2ccc(OCC3CCC3)cc2)cc1` , thanks.
Resp: 1.20

Req: // lookup log10 MIC for `CCCCOc1ccc(NC(=O)Nc2ccc(/C(C)=N/NC(=N)N)cc2)cc1`
Resp: 0.90

Req: Could you share which log10 MIC value was measured for `COc1ccc(C(=O)Nc2ccc(/C(C)=N/NC(=N)N)cc2)cc1OC` ?
Resp: 1.20

Req: Quick one: log10 MIC for `CCCCCCCCCOc1ccc(NC(=O)Nc2ccc(/C(C)=N/NC(=N)N)cc2)cc1` ?
Resp: 1.51

Req: What log10 MIC value was documented for this molecule, `C/C(=N\NC(=N)N)c1ccc(NC(=O)Nc2ccc(OCc3ccccc3)cc2)cc1` ?
Resp: 0.90

Req: Quick one: log10 MIC for `C/C(=N\NC(=N)N)c1ccc(NC(=O)Nc2ccc(I)cc2)cc1` ?
Resp: 1.00
